Biological target: human V1a receptor (Homo sapiens, UniProt P37288)
Sequence (P37288 whole entry): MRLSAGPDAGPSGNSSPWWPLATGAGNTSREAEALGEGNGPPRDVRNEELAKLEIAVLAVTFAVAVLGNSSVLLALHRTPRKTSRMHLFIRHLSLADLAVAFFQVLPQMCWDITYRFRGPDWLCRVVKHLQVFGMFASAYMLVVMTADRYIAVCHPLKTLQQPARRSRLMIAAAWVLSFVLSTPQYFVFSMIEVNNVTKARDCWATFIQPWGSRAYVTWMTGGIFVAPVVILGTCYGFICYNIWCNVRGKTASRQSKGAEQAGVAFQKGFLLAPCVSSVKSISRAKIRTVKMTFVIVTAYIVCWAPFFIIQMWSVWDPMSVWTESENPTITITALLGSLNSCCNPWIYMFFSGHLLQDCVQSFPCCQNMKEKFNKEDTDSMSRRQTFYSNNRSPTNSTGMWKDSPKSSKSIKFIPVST
Assay: Cellular in vitro assay for vasopressin receptor activity, V1a receptor cell line (aequorin luminescence)
Conditions: CHO cell line transfected with human V1a receptor; [Arg8]-vasopressin at EC50 concentration; read-out: IC50 hV1a
Structures can show the parent of a compound that is named as a salt.
Threshold 2 nM. IC50 below it: T. IC50 at it or above: F.

These solved cases illustrate the format of a correct answer.
[[record]]
molecule = "CC1(C)CN(C(=O)c2nc(Cn3nc(-c4ccc(Cl)cc4)n(C[C@H](O)C(F)(F)F)c3=O)nn2-c2ncccc2C(F)(F)F)CCO1"
answer_label = "T"

[[record]]
molecule = "O=C1CN(C(=O)c2nc(Cn3nc(-c4ccc(Cl)cc4)n(C[C@H](O)C(F)(F)F)c3=O)nn2-c2ccccc2Cl)CCN1"
answer_label = "F"

[[record]]
molecule = "CC1(C)CN(C(=O)c2nc(Cn3nc(-c4ccc(Cl)cc4)n(C[C@H](O)C(F)(F)F)c3=O)nn2-c2ncccc2C(F)(F)F)CCN1 [Example 49, hydrochloride]"
answer_label = "F"

[[record]]
molecule = "CC1(O)CCN(C(=O)c2nc(Cn3nc(-c4ccc(Cl)cc4)n(C[C@H](O)C(F)(F)F)c3=O)nn2CCC(F)(F)F)C1 (mixture of isomers) [Example 22]"
answer_label = "F"

[[record]]
molecule = "CC(C)(N)CNC(=O)c1nc(Cn2nc(-c3ccc(Cl)cc3)n(C[C@H](O)C(F)(F)F)c2=O)nn1-c1ncccc1C(F)(F)F"
answer_label = "F"


Task: Does this molecule meet the criterion IC50 < 2 nM? `CC(C)(O)CNC(=O)c1nc(Cn2nc(-c3ccc(Cl)cc3)n(C[C@H](O)C(F)(F)F)c2=O)nn1-c1ncccc1C(F)(F)F`
Result: T

Task: Does this molecule meet the criterion IC50 < 2 nM? `O=C(NCC1(O)CC1)c1nc(Cn2nc(-c3ccc(Cl)cc3)n(C[C@H](O)C(F)(F)F)c2=O)nn1-c1ncccc1C(F)(F)F`
Result: T

Task: Does this molecule meet the criterion IC50 < 2 nM? `NNC(=O)c1nc(Cn2nc(-c3ccc(Cl)cc3)n(C[C@H](O)C(F)(F)F)c2=O)nn1-c1ncccc1OC(F)(F)F`
Result: F

Task: Does this molecule meet the criterion IC50 < 2 nM? `CC(C)(O)CNC(=O)c1nc(Cn2nc(-c3ccc(Cl)cc3)n(C[C@H](O)C(F)(F)F)c2=O)nn1-c1ncccc1OC(F)(F)F`
Result: T

Task: Does this molecule meet the criterion IC50 < 2 nM? O=C(c1nc(Cn2nc(-c3ccc(Cl)cc3)n(C[C@H](O)C(F)(F)F)c2=O)nn1CCC(F)(F)F)N1CCNC(C(F)(F)F)C1 (mixture of isomers)
Result: F

----------
Target: human V2 receptor (Homo sapiens)
Sequence (P30518 whole entry): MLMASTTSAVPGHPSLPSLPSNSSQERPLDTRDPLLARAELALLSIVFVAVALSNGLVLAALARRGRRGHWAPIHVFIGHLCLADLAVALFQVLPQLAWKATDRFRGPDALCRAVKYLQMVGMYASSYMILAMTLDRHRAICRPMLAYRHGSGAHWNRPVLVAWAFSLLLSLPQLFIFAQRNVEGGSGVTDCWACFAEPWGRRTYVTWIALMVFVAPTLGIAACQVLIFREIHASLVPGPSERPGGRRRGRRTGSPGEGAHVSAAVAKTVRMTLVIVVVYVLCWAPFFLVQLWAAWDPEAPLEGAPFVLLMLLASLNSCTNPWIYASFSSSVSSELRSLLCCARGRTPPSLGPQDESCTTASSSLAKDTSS
Experiment: Cellular in vitro assay for vasopressin receptor activity, V2 receptor cell line (CRE-luciferase)
Conditions: CHO cell line transfected with human V2 receptor; [Arg8]-vasopressin at EC50 concentration; read-out: IC50 hV2
Reported metric: IC50
Please state the value followed by its unit.

Would you please look over these solved cases?
[[record]]
chem_smiles = "NNC(=O)c1nc(Cn2nc(-c3ccc(Cl)cc3)n(C[C@H](O)C(F)(F)F)c2=O)nn1-c1cnccc1Cl"
reported_metric = "IC50"
value_measured = "148 nM"

[[record]]
chem_smiles = "CC1(CNC(=O)c2nc(Cn3nc(-c4ccc(Cl)cc4)n(C[C@H](O)C(F)(F)F)c3=O)nn2-c2ncccc2C(F)(F)F)COC1"
reported_metric = "IC50"
value_measured = "63 nM"

[[record]]
chem_smiles = "O=C(NCC(F)(F)F)c1nc(Cn2nc(-c3ccc(Cl)cc3)n(C[C@H](O)C(F)(F)F)c2=O)nn1-c1ncccc1Br"
reported_metric = "IC50"
value_measured = "40.7 nM"

[[record]]
chem_smiles = "COc1cccnc1-n1nc(Cn2nc(-c3ccc(Cl)cc3)n(C[C@H](O)C(F)(F)F)c2=O)nc1C(=O)NCC(C)(C)N"
reported_metric = "IC50"
value_measured = "104 nM"

[[record]]
chem_smiles = "CC(C)(C)NC(=O)c1nc(Cn2nc(-c3ccc(Cl)cc3)n(C[C@H](O)C(F)(F)F)c2=O)nn1-c1ncccc1OC(F)(F)F"
reported_metric = "IC50"
value_measured = "635 nM"


Consider now this further molecule.
Task: Reported IC50 for `CN(C)C(=O)c1nc(Cn2nc(-c3ccc(Cl)cc3)n(C[C@H](O)C(F)(F)F)c2=O)nn1-c1cccc(Cl)c1` : what is it?
Result: 3.64 nM
